Parameter cell viability of combination: see the listing below.
- System: WHIM2 (cells of a triple-negative basal-like breast cancer xenograft)
- ASSAY INFO: cell viability of combination (% of vehicle); higher = less cytotoxic
- TEST PARAMETERS: 1 µM; 72 h; partner dose: 10 nM
Just the number, please, no unit attached.

COc1cc2c(Oc3ccc4[nH]c(C)cc4c3F)ncnc2cc1OCCCN1CCCC1 [Cediranib (AZD217)] + CN(C)C/C=C/C(=O)Nc1cc2c(Nc3ccc(F)c(Cl)c3)ncnc2cc1O[C@H]1CCOC1 [Afatinib] ... 31.6
CN(C)c1ccc(C(=C2C=CC(=[N+](C)C)C=C2)c2ccc(N(C)C)cc2)cc1.[Cl-] [Crystal Violet] + CN(C)C/C=C/C(=O)Nc1cc2c(Nc3ccc(F)c(Cl)c3)ncnc2cc1O[C@H]1CCOC1 [Afatinib] ... 28.4
CC(C)CC(NC(=O)CNC(=O)c1cc(Cl)ccc1Cl)B(O)O (centres undefined) + CN(C)C/C=C/C(=O)Nc1cc2c(Nc3ccc(F)c(Cl)c3)ncnc2cc1O[C@H]1CCOC1 [Afatinib] ... 94.3

// query Give the reported cell viability of combination for CC(C)c1nc(CN(C)C(=O)NC(C(=O)NC(Cc2ccccc2)CC(O)C(Cc2ccccc2)NC(=O)OCc2cncs2)C(C)C)cs1 (centres undefined) [Ritonavir] + CN(C)C/C=C/C(=O)Nc1cc2c(Nc3ccc(F)c(Cl)c3)ncnc2cc1O[C@H]1CCOC1 [Afatinib] (system: WHIM2).
// result 49
